System: GT-3 HCV NS3/4A protease
assayExplanation: biochemical
Set-up: species or system Hepatitis C virus genotype 3a
statedConditions: GT-3 Ki / GT-1 Ki
In plain terms, low fold change (FC) in Ki, GT-3 relative to GT-1, meaning strictly below 900 fold, gives YES, and everything else gives NO.

Previously resolved entries follow.
CCC[C@H](NC(=O)[C@@H]1[C@H]2CCC[C@H]2CN1C(=O)[C@@H](NC(=O)[C@@H](NC(=O)c1cnccn1)C1CCCCC1)C(C)(C)C)C(=O)C(=O)NC1CC1
YES
C=C[C@@H]1C[C@]1(NC(=O)[C@@H]1C[C@@H](Oc2ncc(OC)c3ccc(Cl)cc23)CN1C(=O)[C@@H](NC(=O)OC(C)(C)C)C(C)(C)C)C(=O)NS(=O)(=O)C1CC1
NO

Given CC(C)(C)NC(=O)N[C@H](C(=O)N1C[C@H]2[C@@H]([C@H]1C(=O)NC(CC1CCC1)C(=O)C(N)=O)C2(C)C)C(C)(C)C (some centres unmarked) , is recorded fold change (FC) in Ki, GT-3 relative to GT-1 strictly lower than 900 fold?
YES

Entry CC[C@@H]1C[C@]1(NC(=O)[C@@H]1C[C@@H]2CN1C(=O)[C@H](C(C)(C)C)NC(=O)OCC(C)(C)CCCCc1cccc3c1CN(C3)C(=O)O2)C(=O)NS(=O)(=O)C1CC1 please
YES

====

Recorded pKi for the following compounds
experimentalTarget: GT-3 HCV NS3/4A protease (Hepatitis C virus genotype 3a, UniProt Q81258)
Sequence (Q81258 1036-1213, other chains not shown): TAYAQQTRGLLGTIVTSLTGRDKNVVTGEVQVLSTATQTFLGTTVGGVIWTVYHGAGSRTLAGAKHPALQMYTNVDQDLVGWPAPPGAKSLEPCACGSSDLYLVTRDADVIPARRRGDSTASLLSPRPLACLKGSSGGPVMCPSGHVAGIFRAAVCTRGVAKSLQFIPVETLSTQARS
assayExplanation: biochemical
Keep it numeric: pKi is minus log10 of the concentration in mol/L.

CCC[C@H](NC(=O)[C@@H]1[C@H]2CCC[C@H]2CN1C(=O)[C@@H](NC(=O)[C@@H](NC(=O)c1cnccn1)C1CCCCC1)C(C)(C)C)C(=O)C(=O)NC1CC1 [telaprevir]
6.58

Query compound follows.
Under GT-3 HCV NS3/4A protease (Hepatitis C virus genotype 3a, UniProt Q81258): pKi value of CC(C)(C)NC(=O)N[C@H](C(=O)N1C[C@H]2[C@@H]([C@H]1C(=O)NC(CC1CCC1)C(=O)C(N)=O)C2(C)C)C(C)(C)C (some centres unmarked) [boceprevir] ?
7.15
